These data points were gathered from PubChem BioAssay (NCI).

System: T-47D breast
measurement notes: NCI tumour cell line growth inhibition, 48 h
Can you tell me TGI for the items I'm about to list?

Check out these entries, answers already filled in.
{"compound": "COc1cc(C(=O)C2C(=O)c3ccccc3C2C2(O)c3ccccc3CC2C(O)c2cc(OC)c(OC)c(OC)c2)cc(OC)c1OC (stereo not given)", "reading": "> 100 µM"}
{"compound": "O=C(O)CC1NC(/C(=C/c2ccccc2O)NC(=O)c2ccccc2)OC1=O (stereo not given)", "reading": "> 100 µM"}
{"compound": "Cc1cc(S(=O)(=O)NC2=NC(c3ccccc3)c3cc(Cl)ccc3N2)c(S)cc1Cl (stereo not given)", "reading": "> 100 µM"}

Hello, I would appreciate it if you could give TGI for each entry below.
1. O=C1C(Nc2ccc(Br)cc2)=C(I)C(=O)c2ncccc21
2. COc1cccc(C2ON=C(c3ccccc3)N2C23CC4CC(CC(C4)C2)C3)c1 (stereo not given)
3. COc1cc2oc(-c3ccc(O)cc3O)c(CC=C(C)C)c(=O)c2c(O)c1/C=C/C(C)C
4. Cc1[nH]c(C(=O)Nc2ccccc2OC2CCNCC2)c(Cl)c1Cl

A:
1: 2.24 µM; 2: > 10 µM; 3: 23.4 µM; 4: 2.09 µM

// for each compound in input: emit TGI
1. COC(=O)c1ccc(NCc2c(O)ccc(O)c2Br)cc1Cl
2. CC(=O)Nc1ccc(-c2nc3ccccc3s2)cc1C
3. CCOC(=O)C1=c2[nH]c3cccc4cccc(c43)n2C(=O)CC1c1ccccc1 (stereo not given)

A:
["43.3 µM", "> 100 µM", "> 100 µM"]
